molecular target: CDK4/CyclinD1 (Homo sapiens); construct: purchased Thermofisher PR8064A; assay: Assay for inhibition of CDK4/CyclinD1 (Caliper microfluidic kinase assay); format: biochemical; conditions: CDK4/CyclinD1, 200 μM ATP
Sequence (P11802 whole entry): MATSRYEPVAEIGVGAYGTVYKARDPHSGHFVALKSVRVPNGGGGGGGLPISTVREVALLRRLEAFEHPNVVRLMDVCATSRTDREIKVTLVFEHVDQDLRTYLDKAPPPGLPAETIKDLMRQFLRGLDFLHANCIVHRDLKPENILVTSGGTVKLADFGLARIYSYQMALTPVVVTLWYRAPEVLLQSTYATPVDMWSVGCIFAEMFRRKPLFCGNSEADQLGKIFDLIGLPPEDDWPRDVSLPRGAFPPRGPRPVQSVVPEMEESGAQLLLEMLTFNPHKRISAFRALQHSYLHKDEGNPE
Sequence (P24385 whole entry partner): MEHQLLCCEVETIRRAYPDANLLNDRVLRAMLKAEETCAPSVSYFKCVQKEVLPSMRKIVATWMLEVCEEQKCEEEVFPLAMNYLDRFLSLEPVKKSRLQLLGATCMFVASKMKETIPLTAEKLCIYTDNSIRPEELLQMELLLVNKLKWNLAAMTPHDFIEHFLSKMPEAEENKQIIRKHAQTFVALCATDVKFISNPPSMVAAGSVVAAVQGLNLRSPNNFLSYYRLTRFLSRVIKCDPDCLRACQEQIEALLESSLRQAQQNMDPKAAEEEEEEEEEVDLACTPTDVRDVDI
Known IC50 of a selection of compounds

# example entries with known answers
>  <Compound>
CCN1CCN(Cc2ccc(Nc3ncc(F)c(-c4cc(C)n5ncc(C(C)C)c5c4)n3)nc2)CC1

>  <IC50>
10 to 100 nM

$$$$
>  <Compound>
CC(C)c1cnn2ccc(-c3ccnc(Nc4ccc(N5CCC(N(C)C)C5=O)cc4)n3)cc12 (stereo not drawn)

>  <IC50>
< 10 nM

$$$$
>  <Compound>
CNC(=O)c1ccc(Nc2nccc(-c3ccn4ncc(C(C)C)c4c3)n2)cc1

>  <IC50>
< 10 nM

$$$$
>  <Compound>
CC(C)(C)c1cnn2ccc(-c3ccnc(Nc4ccc(N5CCNCC5=O)cc4F)n3)cc12

>  <IC50>
< 10 nM

$$$$
>  <Compound>
CCN1CCN(Cc2ccc(Nc3ncc(F)c(N4CCc5ncn(C(C)C)c5C4)n3)nc2)CC1

>  <IC50>
10 to 100 nM

$$$$
>  <Compound>
CC(C)c1cnn2ccc(-c3nc(Nc4ccc(N5CCN(C6CC6)CCC5=O)cn4)ncc3F)cc12 [Synthetic Example 49]

>  <IC50>
< 10 nM

$$$$

The compound listed as COc1nc(-c2nc(Nc3ccc(N4CCC(N(C)C)CC4=O)cn3)ncc2F)cc2c1nc(C)n2C(C)C (single isomer, unassigned) [Example 62-2] shows IC50 equal to < 10 nM

Query COc1nc(-c2nc(Nc3ccc(N4CCNC5(CC5)C4)cn3)ncc2F)cc2c1nc(C)n2C(C)C yields IC50 of 10 to 100 nM

====

system: phosphorylation of Retinoblastoma Protein (pRb Ser807/811 or Ser780) in T47D cells; assay: Inhibition of phosphorylation of retinoblastoma protein (pRb) in T47D cell (ELISA); format: cell-based, human; settings: Homo sapiens, T47D, read-out: Phospho T47D Ser807 IC50, pRb Ser807 phosphorylation, T47D cells
pIC50: −log10 of the molar value.
pIC50 values, listed per item

Below: 3 molecules and their reported pIC50.
>  <Molecule>
COc1nc(-c2ccnc(Nc3ccc(CN4CCC(C#N)CC4)cn3)n2)cc2c1ncn2C(C)C

>  <Attribute measured>
pIC50

>  <Test value>
> 7.00

$$$$
>  <Molecule>
CC(C)n1cnc2c(F)nc(-c3ccnc(Nc4ccc(N5CCCNC5=O)cc4)n3)cc21

>  <Attribute measured>
pIC50

>  <Test value>
> 7.00

$$$$
>  <Molecule>
Cc1cnc(Nc2ccc(N3CCC(N(C)C)CC3=O)cn2)nc1-c1cc2c(ncn2C(C)C)c(F)n1 (stereo not drawn)

>  <Attribute measured>
pIC50

>  <Test value>
> 7.00

$$$$

For this molecule ( CC(C)c1cnn2ccc(-c3ccnc(Nc4ccc(N5CCNC5=O)cn4)n3)cc12 ), measured pIC50 is > 7.00

# pIC50 of CC(C)n1cnc2c1CN(c1ccnc(Nc3ccc(N4CCC(C)(N)CC4=O)cn3)n1)CC2 (stereo not drawn) = 6.00 to 6.30

Record CC(C)c1cnn2ccc(-c3ccnc(Nc4ccc(N5CCNCC5=O)cn4)n3)cc12 . Reported pIC50: > 7.00

The measured pIC50 associated with COc1nc(-c2nc(Nc3ccc(N4CCOCCC4=O)cn3)ncc2F)cc2c1nc(C)n2C(C)C reads > 7.00

Notebook: CC(C)c1cnn2ccc(-c3nc(Nc4ccc(N5CCN(C6COC6)CCC5=O)cn4)ncc3F)cc12 [Synthetic Example 43] , pIC50 read as > 7.00

Entry under test: COc1nc(-c2ccnc(Nc3ccc(CN4CCC(F)(F)C4)cn3)n2)cc2c1ncn2C(C)C . Its pIC50 was 6.30 to 7.00

====

Biological target: CDK6/CyclinD3 (Homo sapiens, UniProt Q00534)
Construct: purchased Carna 04-107
Sequence (Q00534 whole entry): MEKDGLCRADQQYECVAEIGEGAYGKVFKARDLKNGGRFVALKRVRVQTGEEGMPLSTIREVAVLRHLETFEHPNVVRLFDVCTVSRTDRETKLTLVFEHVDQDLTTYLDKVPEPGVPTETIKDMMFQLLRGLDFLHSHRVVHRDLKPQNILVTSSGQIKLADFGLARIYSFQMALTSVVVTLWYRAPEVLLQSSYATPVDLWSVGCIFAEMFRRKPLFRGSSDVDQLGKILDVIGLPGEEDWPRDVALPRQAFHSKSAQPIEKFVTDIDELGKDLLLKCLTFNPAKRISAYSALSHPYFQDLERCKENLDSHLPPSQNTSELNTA
Sequence (P30281 whole entry partner): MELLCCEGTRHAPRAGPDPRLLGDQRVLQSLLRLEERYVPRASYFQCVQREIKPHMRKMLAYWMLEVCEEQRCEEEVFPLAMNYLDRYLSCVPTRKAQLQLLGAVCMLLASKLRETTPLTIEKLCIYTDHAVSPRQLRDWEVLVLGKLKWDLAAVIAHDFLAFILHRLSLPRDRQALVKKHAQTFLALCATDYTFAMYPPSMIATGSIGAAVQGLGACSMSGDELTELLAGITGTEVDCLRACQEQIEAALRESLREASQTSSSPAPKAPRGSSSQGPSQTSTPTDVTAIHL
Test: Assay for inhibition of CDK6/CyclinD3 (Caliper microfluidic kinase assay)
Format: biochemical
Conditions: CDK6/CyclinD3, 300 μM ATP
Protocol: The CDK6 enzyme assay for IC50 determination was performed as follows. Microfluidic kinase detection technology (Caliper) was used to monitor the phosphorylation of peptide substrate by CDK6/CyclinD3. […] The plate was then loaded on Caliper EZ Reader (EZ Reader II, PerkinElmer, HD-4HYSG2772), and the reaction mixtures including substrate and product were sipped into the microfluidic chip for separation and detection. […]
pIC50: −log10 of the molar value.
pIC50 reference

Reference set (5 entries):
>  <Compound>
CC(C)c1cnn2ccc(-c3ccnc(Nc4ccc(N5CCCC(N(C)C)C5=O)cn4)n3)cc12 (centres unmarked)

>  <pIC50>
7.00 to 8.00

$$$$
>  <Compound>
CNC1CCN(C(=O)c2ccc(Nc3nccc(-c4ccn5ncc(C(C)C)c5c4)n3)cc2)C1 (centres unmarked)

>  <pIC50>
> 8.00

$$$$
>  <Compound>
COc1nc(-c2ccnc(Nc3ccc(N4CCNCC4=O)c(F)c3)n2)cc2c1ncn2C(C)C

>  <pIC50>
7.00 to 8.00

$$$$
>  <Compound>
CC(C)c1cnn2ccc(-c3ccnc(Nc4ccc(S(N)(=O)=O)cc4)n3)cc12

>  <pIC50>
6.00 to 7.00

$$$$
>  <Compound>
CC(C)c1cnn2ccc(-c3ccnc(Nc4ccc(N5CCNC5=O)cn4)n3)cc12

>  <pIC50>
7.00 to 8.00

$$$$

Query CC(C)N1CCN(c2ccc(Nc3nccc(-c4cc5c(ncn5C(C)C)c(F)n4)n3)nc2)CC1 [Synthetic Example 287] on CDK6/CyclinD3 (Homo sapiens, UniProt Q00534); pIC50 returned: 7.00 to 8.00

Result for CCN1CCN(Cc2ccc(Nc3nccc(-c4cc5c(ncn5C(C)C)c(F)n4)n3)nc2)CC1 , tested on CDK6/CyclinD3 (Homo sapiens, UniProt Q00534), pIC50: 7.00 to 8.00

Lab entry: CDK6/CyclinD3 (Homo sapiens, UniProt Q00534) assay, compound CC(C)n1cnc2c1CN(c1ccnc(Nc3ccc(N4CCCNC4=O)cn3)n1)CC2 , pIC50 = 7.00 to 8.00

====

test system: phosphorylation of Retinoblastoma Protein (pRb Ser807/811 or Ser780) in T47D cells; test: Inhibition of phosphorylation of retinoblastoma protein (pRb) in T47D cell (ELISA); type: cell-based, human; details: Homo sapiens, T47D, read-out: Phospho T47D Ser807 IC50, pRb Ser807 phosphorylation, T47D cells
pIC50: −log10 of the molar value.
Attribute measured: pIC50

>  <Molecule>
COc1nc(-c2ccnc(Nc3ccc(N4CCN(C5COC5)CC4)cn3)n2)cc2c1ncn2C(C)C

>  <Target entity>
phosphorylation of Retinoblastoma Protein (pRb Ser807/811 or Ser780) in T47D cells

>  <pIC50>
6.30 to 7.00

$$$$
>  <Molecule>
COc1nc(-c2ccnc(Nc3ccc(N4CCOC(C)(C)C4)cn3)n2)cc2c1ncn2C(C)C

>  <Target entity>
phosphorylation of Retinoblastoma Protein (pRb Ser807/811 or Ser780) in T47D cells

>  <pIC50>
6.30 to 7.00

$$$$
>  <Molecule>
CC(C)n1cnc2c1CN(c1ccnc(Nc3ccc(N4CCCNC4=O)cn3)n1)CC2

>  <Target entity>
phosphorylation of Retinoblastoma Protein (pRb Ser807/811 or Ser780) in T47D cells

>  <pIC50>
> 7.00

$$$$
>  <Molecule>
CC(C)c1cnn2ccc(-c3nc(Nc4ccc(N5CCNCCC5=O)cn4)ncc3F)cc12

>  <Target entity>
phosphorylation of Retinoblastoma Protein (pRb Ser807/811 or Ser780) in T47D cells

>  <pIC50>
> 7.00

$$$$
>  <Molecule>
COc1nc(-c2ccnc(Nc3ccc(N4CCC(N(C)C)CC4=O)cn3)n2)cc2c1ncn2C(C)C (stereo not shown)

>  <Target entity>
phosphorylation of Retinoblastoma Protein (pRb Ser807/811 or Ser780) in T47D cells

>  <pIC50>
> 7.00

$$$$
>  <Molecule>
CC(C)c1cnn2ccc(-c3ccnc(Nc4ccc(N5CCC(C)(N)CC5=O)cn4)n3)cc12 (stereo not shown)

>  <Target entity>
phosphorylation of Retinoblastoma Protein (pRb Ser807/811 or Ser780) in T47D cells

>  <pIC50>
> 7.00

$$$$
>  <Molecule>
CC(C)n1cnc2c(F)nc(-c3ccnc(Nc4ccc(N5CCCC(N)C5=O)cc4)n3)cc21 (stereo not shown)

>  <Target entity>
phosphorylation of Retinoblastoma Protein (pRb Ser807/811 or Ser780) in T47D cells

>  <pIC50>
> 7.00

$$$$
>  <Molecule>
CC(C)n1cnc2c1CN(c1ccnc(Nc3ccc(N4CCN(S(C)(=O)=O)CC4=O)cn3)n1)CC2

>  <Target entity>
phosphorylation of Retinoblastoma Protein (pRb Ser807/811 or Ser780) in T47D cells

>  <pIC50>
< 6.00

$$$$
>  <Molecule>
CC(C)n1cnc2c1CN(c1ccnc(Nc3ccc(N4CCC(N(C)C)CC4=O)cn3)n1)CC2 (stereo not shown)

>  <Target entity>
phosphorylation of Retinoblastoma Protein (pRb Ser807/811 or Ser780) in T47D cells

>  <pIC50>
6.30 to 7.00

$$$$
>  <Molecule>
CC(C)c1cnn2ccc(-c3nc(Nc4ccc(N5CCOCC5=O)cc4F)ncc3F)cc12

>  <Target entity>
phosphorylation of Retinoblastoma Protein (pRb Ser807/811 or Ser780) in T47D cells

>  <pIC50>
6.30 to 7.00

$$$$

Per the record, CC(C)n1cnc2c(F)nc(-c3ccnc(Nc4ccc(N5CCC(N(C)C)CC5=O)cn4)n3)cc21 (stereo not shown) has pIC50 of > 7.00

# pIC50 of COc1nc(-c2ccnc(Nc3ccc(N4CCNCC4=O)cc3F)n2)cc2c1ncn2C(C)C = 6.30 to 7.00

response.value for CC(C)c1cnn2ccc(-c3nc(Nc4ccc(N5CCN(S(C)(=O)=O)CC5=O)cn4)ncc3F)cc12 (field: pIC50) = > 7.00

The molecule CC(C)c1cnn2ccc(-c3ccnc(Nc4ccc(N5CCCC(N)C5=O)cn4)n3)cc12 (stereo not shown) showed pIC50 equal to > 7.00

According to the records, this molecule COc1nc(-c2nc(Nc3ccc(N4CCOCC4=O)cn3)ncc2F)cc2c1ncn2C(C)C displays pIC50 of > 7.00

For COc1nc(-c2ccnc(Nc3ccc(C(=O)N4CCC(NC5CC5)C4)cc3)n2)cc2c1ncn2C(C)C (stereo not shown) the molecule record lists pIC50 as > 7.00

// data source = patent US20220296595A1
